# Test system: Staphylococcus aureus
# cond: Concentration 32 ug.mL-1;; ASSAY_TEST Inhibition of Bacterial Growth; detection method Absorption (OD600); MEDIA CAMHB; plate type 384well; NBS; CORNING #3640; time 18 hr
# Description: Antibacterial activity against Staphylococcus aureus MRSA ATCC 43300 (CO-ADD:GP_020); MIC in CAMBH media, using NBS plates, by OD(600)
Entries with a potency or affinity are not part of this list.
readout kind: Inhibition (%)
Numbers only, in %.

Worked set:
INSERT INTO measurements (compound, readout_kind, unit_descriptor, numeric_result) VALUES
  ('CCCCn1c(=O)c2sccc2n2c(=O)n(CC(=O)c3ccc(C)cc3C)nc12', 'Inhibition', '%', -3.74),
  ('COc1cc(NC(=O)Cn2nc3ccc(SCc4ccc(Cl)cc4)nn3c2=O)cc(OC)c1', 'Inhibition', '%', -3.52),
  ('Cc1ccccc1CN(c1ccc(C(C)C)cc1)S(=O)(=O)c1cccn2cnnc12', 'Inhibition', '%', 17.72),
  ('Cc1ccc(-c2ccc3nn(CC(=O)Nc4cccc(Cl)c4)c(=O)n3n2)cc1C', 'Inhibition', '%', -4.46),
  ('O=S(=O)(c1cccn2cnnc12)N(Cc1ccc(F)cc1)c1ccc(F)c(F)c1', 'Inhibition', '%', 8.71);

Dear reader, for each entry below, please note its Inhibition.
1. CCC(Sc1nnc2c(=O)n(-c3cccc(OC)c3)ccn12)C(=O)Nc1cc(OC)ccc1OC (stereo unspecified)
2. CCCN(C)c1nccn2c(=O)n(CC(=O)Nc3ccc(Br)cc3)nc12
3. CC(C)Cn1c(=O)c2sccc2n2c(=O)n(CC(=O)N3CCC(Cc4ccccc4)CC3)nc12

Response:
[-1.04, 8.04, -13.33]

Dear reader, for each entry below, please note its Inhibition.
1. Cc1ccc(NC(=O)CSc2nc3ccccc3n3cnnc23)c(Br)c1
2. CSc1cccc(NC(=O)Cn2nc3ccc(SC(C)(C)C)nn3c2=O)c1

Response:
1. -13.31
2. -2.88

###

# System: Staphylococcus aureus
# cond: Concentration 32 ug.mL-1;; ASSAY_TEST Inhibition of Bacterial Growth; detection method Absorption (OD600); MEDIA CAMHB; plate type 384well; NBS; CORNING #3640; time 18 hr
Potency and affinity values are given separately.
readout kind: Inhibition (%)
Answers are plain numbers, in %.

Dear reader, for each entry below, please note its Inhibition.
1. Cc1ccccc1Nc1cc(C)n2c(=O)n(CCOc3ccc(F)cc3)nc2n1
2. COc1cccc(-n2ccn3c(SCC(=O)Nc4cccc(F)c4)nnc3c2=O)c1

Response:
13.1
-6.79

###

# Tested on: Escherichia coli
# cond: Concentration 32 ug.mL-1;; ASSAY_TEST Inhibition of Bacterial Growth; detection method Absorption (OD600); MEDIA CAMHB; plate type 384well; NBS; CORNING #3640; time 18 hr
# Description: Antibacterial activity against Escherichia coli ATCC 25922 (CO-ADD:GN_001); MIC in CAMBH media using NBS plates, by OD(600)
Measured potencies and affinities stand elsewhere.
Answer each item with its documented Inhibition.
Answers are plain numbers, in %.

Worked set:
INSERT INTO assay_data (item_smiles, numeric_result) VALUES
  ('COc1cccc(CSc2nnc3c(=O)n(-c4ccc(Br)cc4)ccn23)c1', -1.68),
  ('COc1ccc(CNC(=O)CCc2nnc3c(N4CCCCC4)nc4ccccc4n23)cc1OC', 2.89),
  ('Cc1ccc(NC(=O)Cn2nc3c4cc(-c5ccc(C)c(C)c5)nn4ccn3c2=O)c(Cl)c1', -1.41),
  ('CC(C)c1ccc(Cn2c(=O)c3sccc3n3c(SCc4cccc(C(F)(F)F)c4)nnc23)cc1', 1.07),
  ('CC(C)Sc1ccc2nn(CC(=O)Nc3ccccc3F)c(=O)n2n1', 3.66);

Dear reader, for each entry below, please note its Inhibition.
1. O=c1c2nnc(SCc3ccccc3Cl)n2ccn1-c1ccc(F)cc1
2. O=C(Cn1nc2c(N3CCOCC3)nccn2c1=O)Nc1cccc(C(F)(F)F)c1
3. COc1ccc(OC)c(NC(=O)Cn2nc3ccc(-c4ccc(Cl)cc4)nn3c2=O)c1
4. Cc1ccc(-c2ccc3nn(CC(=O)Nc4cccc(Cl)c4)c(=O)n3n2)cc1C

Response:
1. -4.39
2. -2.32
3. -2.3
4. -9.75

Prompt: Return value of Inhibition for input O=c1n(Cc2nc(-c3ccc(OC(F)(F)F)cc3)no2)nc2ccc(-c3ccccc3)nn12 , no commentary.
Response: -5.47
